Each entry below carries its reported Kd.
- System: T1, full-length PcrV.6xhis (Pseudomonas aeruginosa)
- T1 construct: Recombinant full-length V-tip protein of the type 3 secretion system, His-tagged; also called full-length PcrV with a C-terminal hexahistidine tag
- Assay details: SPR (Biacore T200), mAb captured via anti-human Fc, PcrV injected, 37 C
All answers are understood in nM, so give the number only.

Example entries begin here.
Binder	Kd / nM
H1H29329P (antibody, V domains shown) VH: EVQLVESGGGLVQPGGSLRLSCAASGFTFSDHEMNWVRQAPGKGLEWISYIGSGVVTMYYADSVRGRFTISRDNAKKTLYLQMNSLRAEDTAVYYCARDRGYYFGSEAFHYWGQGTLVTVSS VL: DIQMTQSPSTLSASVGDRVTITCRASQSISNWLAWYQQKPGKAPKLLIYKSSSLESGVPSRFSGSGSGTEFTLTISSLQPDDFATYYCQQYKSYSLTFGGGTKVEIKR	9.12
H1H29339P (antibody, V domains shown) VH: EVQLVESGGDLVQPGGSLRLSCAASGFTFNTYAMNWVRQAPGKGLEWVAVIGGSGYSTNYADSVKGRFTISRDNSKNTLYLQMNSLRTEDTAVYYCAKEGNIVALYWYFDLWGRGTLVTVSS VL: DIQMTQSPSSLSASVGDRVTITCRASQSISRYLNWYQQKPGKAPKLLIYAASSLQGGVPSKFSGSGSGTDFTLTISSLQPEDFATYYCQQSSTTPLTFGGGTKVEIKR	0.0197

Measured Kd of REGN3514 (antibody, V domains shown, also called Control I; Control I-REGN3514) VH: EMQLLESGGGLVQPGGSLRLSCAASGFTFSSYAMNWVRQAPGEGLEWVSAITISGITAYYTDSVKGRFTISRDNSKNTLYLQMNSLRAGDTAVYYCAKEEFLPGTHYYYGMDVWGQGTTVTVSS VL: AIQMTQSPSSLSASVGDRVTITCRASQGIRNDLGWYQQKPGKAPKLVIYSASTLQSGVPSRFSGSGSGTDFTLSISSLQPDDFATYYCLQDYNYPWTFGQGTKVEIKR : 0.453

Kd reading for REGN3977 (antibody, V domains shown, also called Control III; REGN3977-Control III) VH: QVQLKQSGPGLVQPSQSLSITCTVSGFSLTSYGVHWVRQSPGKGLEWLGVIWSGGDTDYNAAFISRLSISKDNSKSQLFFKMNSLRATDTAIYYCARNRGDIYYDFTYAMDYWGQGTSVTVSS VL: DIQMTQSPASLSASVGETVTITCRASGNIQNYLAWYQQTQGKSPQLLVYSAKTLADGVPSRFSGSGSGTQYSLKINSLQPEDFGSYYCQHFWSTPYTFGGGTKLEIKR : 3.48

Notebook: H1H29332P (antibody, V domains shown) VH: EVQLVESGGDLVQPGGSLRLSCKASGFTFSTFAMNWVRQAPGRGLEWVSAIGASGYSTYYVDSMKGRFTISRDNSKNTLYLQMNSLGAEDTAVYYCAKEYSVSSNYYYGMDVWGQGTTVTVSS VL: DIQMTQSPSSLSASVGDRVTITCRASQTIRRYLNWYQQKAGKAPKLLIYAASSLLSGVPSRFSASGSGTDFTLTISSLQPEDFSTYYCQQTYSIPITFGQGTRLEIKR , Kd read as 0.092
